Target: T1, human complement protein C5 (human, UniProt P01031 19-1676)
T1 construct: Native C5 is a two-chain protein made from one precursor; also called hC5; human C5
Assay: SPR (Biacore), pH 6.0
Recorded measurements of kon, one per entry
Use M⁻¹ s⁻¹ as the unit, but write only the number.

Reference set (3 entries):
binder="CRL0484 (bispecific antibody, anti-C5 VHH / (G4S)3 / anti-albumin VHH fusion, purified by Protein A; also called CRL0484 (C5/HSA)) EVQLVESGGGLVQPGGSLRLSCAASGRTFSGILSPYAVGWFRQAPGKGLEFVSTITSGGSAIYTDSVKGRFTISRDNAKDSLYLQMNSLRAEDTAVYYCAVRTRRYGSNLGEVPQENEYGYWGQGTLVTVSSGGGGSGGGGSGGGGSEVQLVESGGGLVKPGGSLRLSCAASGRPVSNYAAAWFRQAPGKEREFVSAINWQKTATYADSVKGRFTISRDNAKNSLYLQMNSLRAEDTAVYYCAAVFRVVAPKTQYDYDYWGQGTLVTVSS" result=425000
binder="CRL0500 (bispecific antibody, anti-albumin VHH / (G4S)3 / anti-C5 VHH fusion, purified by Protein A; also called CRL0500 (HSA/C5)) EVQLVESGGGLVKPGGSLRLSCAASGRPVSNYAAAWFRQAPGKEREFVSAINWQKTATYADSVKGRFTISRDNAKNSLYLQMNSLRAEDTAVYYCAAVFRVVAPKTQYDYDYWGQGTLVTVSSGGGGSGGGGSGGGGSEVQLVESGGGLVQPGGSLRLSCAASGRAHSDYAMAWFRQAPGQEREFVAGIGWSGGDTLYADSVRGRFTNSRDNSKNTLYLQMNSLRAEDTAVYYCAARQGQYIYSSMRSDSYDYWGQGTLVTVSS" result=8.02e+06
binder="CRL0483 (bispecific antibody, anti-C5 VHH / (G4S)3 / anti-albumin VHH fusion, purified by Protein A; also called CRL0483 (C5/HSA)) EVQLVESGGGLVQPGGSLRLSCAASGRTFSGILSPYAVGWFRQAPGKGLEFVSTITSGGSAIYTDSVKGRFTISRDNAKDSLYLQMNSLRAEDTAVYYCAVRTRRYGSNLGEVPQENEYGYWGQGTLVTVSSGGGGSGGGGSGGGGSEVQLLESGGGLVQPGGSLRLSCAASGFTFRSFGMSWVRQAPGKGPEWVSSISGSGSDTLYADSVKGRFTISRDNSKNTLYLQMNSLRPEDTAVYYCTIGGSLSRSSQGTLVTVSS" result=40000

Query binder follows.
Query (binder): CRL0499 (bispecific antibody, anti-albumin VHH / (G4S)3 / anti-C5 VHH fusion, purified by Protein A; also called CRL0499 (HSA/C5)) EVQLLESGGGLVQPGGSLRLSCAASGFTFRSFGMSWVRQAPGKGPEWVSSISGSGSDTLYADSVKGRFTISRDNSKNTLYLQMNSLRPEDTAVYYCTIGGSLSRSSQGTLVTVSSGGGGSGGGGSGGGGSEVQLVESGGGLVQPGGSLRLSCAASGRAHSDYAMAWFRQAPGQEREFVAGIGWSGGDTLYADSVRGRFTNSRDNSKNTLYLQMNSLRAEDTAVYYCAARQGQYIYSSMRSDSYDYWGQGTLVTVSS ; field requested: kon
2.51e+06
